# assay-notes: Pharmacokinetic study of 5 compounds in rat plasma after oral administration of Zuogui Pill extract (HPLC-MS/MS, noncompartmental analysis)
# Assay type: in vivo, Female Sprague-Dawley rats
# condition-details: female, Sprague-Dawley, rat, po, 1.5 mL/100 g, osteoporosis rats (ovariectomized), oral Zuogui Pill extract 1.5 mL/100 g, n = 6
measured-endpoint: Cmax (ng/mL)

Previously resolved entries follow.
molecule	Cmax [ng/mL]
COC(=O)C1=CO[C@@H](O[C@@H]2O[C@H](CO)[C@@H](O)[C@H](O)[C@H]2O)[C@@H]2[C@H](C)O[C@@H](O)C[C@H]12 [Morroniside, morroniside]	1110
O=Cc1ccc(O)c(O)c1	10.1
COC(=O)C1=CO[C@@H](O[C@@H]2O[C@H](CO)[C@@H](O)[C@H](O)[C@H]2O)[C@@H]2[C@@H](C)[C@@H](O)C[C@H]12	8380

I. O=C(/C=C/c1ccc(O)c(O)c1)O[C@@H]1C[C@](O)(C(=O)O)C[C@@H](O)[C@H]1O
II. OCC1=C[C@@H](O)[C@@H]2C=CO[C@@H](O[C@@H]3O[C@H](CO)[C@@H](O)[C@H](O)[C@H]3O)[C@H]12
-- ask Dear colleague, could you let me know whether I or II has the lower recorded Cmax? Thanks. Could you answer with the label of the item you picked?
-- reply II
(II: 103 ng/mL, I: 279 ng/mL)
